ASSAY_METHOD_TEXT: chemical genetic growth profiling, strain panel (AID 1159580);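 also: tested at 20 µM; growth read once vehicle control cultures reached saturation at 30 °C; 1 = growth at the plate median or of vehicle wells; lower values mean less growth of the strain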
MEASUREMENT_SETUP: S. cerevisiae deletion strains, growth OD, locus YJR066W, strain TOR1, stronger effect = lower value
Out of some 5,500 compounds screened, about 2,000 (36%) were called active. About 18% were inconclusive and are not listed. The list shows a part of the results.
ASSAY_METRIC: normalized growth
// no unit string in output, number only

* C[C@@H]1OC(O[C@H]2[C@H](O)[C@@H](O)[C@H](OC[C@H]3O[C@@H](OC(=O)[C@]45CCC(C)(C)CC4C4=CCC6[C@@]7(C)CC[C@H](OC8OC[C@H](O)[C@H](O)[C@H]8OC8O[C@@H](C)[C@H](O)[C@@H](O)[C@H]8O)[C@@](C)(CO)C7CC[C@@]6(C)[C@]4(C)CC5)[C@H](O)[C@@H](O)[C@@H]3O)O[C@@H]2CO)[C@H](O)[C@H](O)[C@H]1O (some centres not stated) | 0.967

Now for the compound whose normalized growth we want.
Prompt: May I ask what normalized growth has been recorded for OC(CCN1CCCCC1)(c1ccccc1)C1CC2C=CC1C2 (configuration not stated) ?
Response: 0.935

Data origin: PubChem BioAssay AID1159580
